Data provenance is patent US10669252B2.

Biological target: TLR8 (Homo sapiens, UniProt Q9NR97)
Construct: host or cells: HEK293 (HEK-BLUE-hTLR8)
Sequence (Q9NR97 27-1041): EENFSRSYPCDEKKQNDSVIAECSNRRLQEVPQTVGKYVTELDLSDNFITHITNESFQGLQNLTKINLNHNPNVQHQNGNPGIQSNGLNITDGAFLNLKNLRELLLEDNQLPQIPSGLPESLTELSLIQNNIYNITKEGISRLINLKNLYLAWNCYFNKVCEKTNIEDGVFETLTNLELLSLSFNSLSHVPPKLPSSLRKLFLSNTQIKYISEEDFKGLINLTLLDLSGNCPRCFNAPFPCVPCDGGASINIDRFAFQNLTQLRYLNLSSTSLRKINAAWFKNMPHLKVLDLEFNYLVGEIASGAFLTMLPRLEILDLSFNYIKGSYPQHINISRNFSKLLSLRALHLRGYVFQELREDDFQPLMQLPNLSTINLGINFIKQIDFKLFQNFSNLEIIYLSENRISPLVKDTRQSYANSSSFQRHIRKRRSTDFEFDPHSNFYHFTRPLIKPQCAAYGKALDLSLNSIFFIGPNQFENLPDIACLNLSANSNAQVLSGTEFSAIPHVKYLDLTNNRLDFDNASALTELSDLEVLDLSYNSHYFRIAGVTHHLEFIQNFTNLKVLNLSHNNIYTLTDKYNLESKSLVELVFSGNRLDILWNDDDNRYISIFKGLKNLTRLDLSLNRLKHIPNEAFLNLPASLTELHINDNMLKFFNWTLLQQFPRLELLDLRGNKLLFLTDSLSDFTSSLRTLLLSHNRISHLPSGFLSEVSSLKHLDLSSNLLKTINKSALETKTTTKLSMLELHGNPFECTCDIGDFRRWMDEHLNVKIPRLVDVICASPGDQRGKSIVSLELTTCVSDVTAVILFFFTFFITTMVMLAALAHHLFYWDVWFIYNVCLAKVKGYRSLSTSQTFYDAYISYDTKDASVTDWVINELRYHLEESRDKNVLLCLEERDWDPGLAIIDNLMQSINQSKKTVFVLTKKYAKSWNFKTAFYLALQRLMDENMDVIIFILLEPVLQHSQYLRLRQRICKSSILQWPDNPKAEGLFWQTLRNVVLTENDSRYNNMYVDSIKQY
Assay: TLR8 cell based assay (HEK-BLUE-hTLR8, SEAP reporter linked to NF-κB activation)
Settings: HEK-BLUE-hTLR8 cells, 24 h treatment, SEAP/QUANTI-Blue readout
measurement.kind: EC50

CCCN(CCC)C(=O)C1=Cc2cc(F)c(-c3ccc4c(=O)n(CC(N)=O)ccc4c3)cc2N=C(N)C1    1 to 10 µM
[2H]c1cc(-c2ccc3c(=O)n(CCS(C)(=O)=O)ncc3c2)cc2c1C=C(C(=O)N(CCC)CCC)CC(N)=N2    < 0.1 µM

Task: Determine its reported EC50: CCCN(CCC)C(=O)C1=Cc2ccc(-c3ccc4c(=O)n(CC(=O)NC)ccc4c3)cc2N=C(N)C1
Output: < 0.1 µM

Task: Determine its reported EC50: CCCN(CCC)C(=O)C1=Cc2ccc(-c3ccc4c(=O)n(CCNS(C)(=O)=O)cnc4c3)cc2N=C(N)C1
Output: 0.1 to 1 µM

Task: Determine its reported EC50: CCCN(CCC)C(=O)C1=Cc2c(F)cc(-c3ccc4c(=O)n(CC(=O)N(C)C)ccc4c3)cc2N=C(N)C1
Output: < 0.1 µM

Task: Determine its reported EC50: CCCN(CCC)C(=O)C1=Cc2ccc(-c3ccc4c(=O)n(CCn5cccn5)ncc4c3)cc2N=C(N)C1
Output: < 0.1 µM

Task: Determine its reported EC50: CCCN(CCC)C(=O)C1=Cc2ccc(-c3ccc4c(c3)CCN(CC(C)(C)O)C4=O)cc2N=C(N)C1
Output: < 0.1 µM

---

Biological target: TLR7 (Homo sapiens)
Sequence (Q9NYK1 27-1049): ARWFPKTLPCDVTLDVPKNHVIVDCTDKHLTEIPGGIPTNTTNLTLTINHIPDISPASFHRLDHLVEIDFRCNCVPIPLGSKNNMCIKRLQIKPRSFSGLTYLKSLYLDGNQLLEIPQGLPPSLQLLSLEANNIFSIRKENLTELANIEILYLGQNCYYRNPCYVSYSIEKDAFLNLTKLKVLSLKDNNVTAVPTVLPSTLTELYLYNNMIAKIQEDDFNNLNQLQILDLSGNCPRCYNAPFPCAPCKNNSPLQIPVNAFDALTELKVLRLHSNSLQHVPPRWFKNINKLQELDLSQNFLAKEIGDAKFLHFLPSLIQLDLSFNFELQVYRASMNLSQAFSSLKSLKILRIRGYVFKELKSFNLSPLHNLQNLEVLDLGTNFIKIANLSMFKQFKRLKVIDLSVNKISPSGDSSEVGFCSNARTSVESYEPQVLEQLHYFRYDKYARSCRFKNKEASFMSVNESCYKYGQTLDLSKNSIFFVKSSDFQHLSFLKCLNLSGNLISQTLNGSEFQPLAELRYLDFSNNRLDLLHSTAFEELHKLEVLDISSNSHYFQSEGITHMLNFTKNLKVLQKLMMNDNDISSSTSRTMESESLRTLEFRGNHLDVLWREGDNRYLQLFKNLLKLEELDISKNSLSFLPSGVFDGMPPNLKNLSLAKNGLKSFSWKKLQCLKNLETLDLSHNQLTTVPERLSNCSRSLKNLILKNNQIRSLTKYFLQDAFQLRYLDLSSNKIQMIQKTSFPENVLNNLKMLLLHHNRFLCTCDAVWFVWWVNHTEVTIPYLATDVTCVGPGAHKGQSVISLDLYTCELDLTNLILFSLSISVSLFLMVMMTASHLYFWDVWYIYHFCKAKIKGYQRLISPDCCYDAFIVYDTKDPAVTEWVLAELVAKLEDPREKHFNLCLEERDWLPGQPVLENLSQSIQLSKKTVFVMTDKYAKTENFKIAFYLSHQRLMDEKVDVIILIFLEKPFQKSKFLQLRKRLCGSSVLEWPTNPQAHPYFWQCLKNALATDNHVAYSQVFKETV
Assay: TLR7 cell based assay (HEK-BLUE-hTLR7, SEAP reporter linked to NF-κB activation)
Settings: HEK-BLUE-hTLR7 cells, 24 hours treatment, SEAP/QUANTI-Blue readout
measurement.kind: EC50

Answered cases to consult:
CCCN(CCC)C(=O)C1=Cc2ccc(-c3ccc4c(=O)n(Cc5ccn(C)n5)ccc4c3)cc2N=C(N)C1    > 50 µM
CCCN(CCC)C(=O)C1=Cc2ccc(-c3ccc4c(=O)n(Cc5ncccn5)ccc4c3)cc2N=C(N)C1    10 to 50 µM
CCCN(CCC)C(=O)C1=Cc2cc(F)c(-c3ccc4c(=O)n(CC(N)=O)ccc4c3)cc2N=C(N)C1    > 50 µM
CCCN(CCC)C(=O)C1=Cc2ccc(-c3ccc4c(=O)n(CC(N)=O)ncc4c3)cc2N=C(N)C1    > 50 µM
CCCN(CCC)C(=O)C1=Cc2ccc(-c3ccc4c(=O)n(CCSC)ccc4c3)cc2N=C(N)C1    > 50 µM
CCCN(CCC)C(=O)C1=Cc2ccc(-c3ccc4c(=O)n(CCS(=O)(=O)CC)ncc4c3)cc2N=C(N)C1    10 to 50 µM
CCCN(CCC)C(=O)C1=Cc2ccc(-c3ccc4c(=O)n(Cc5nncn5C)ccc4c3)cc2N=C(N)C1    10 to 50 µM
CCCN(CCC)C(=O)C1=Cc2ccc(-c3ccc4c(=O)n(CCO)c(C)cc4c3)cc2N=C(N)C1    > 50 µM
CCCN(CCC)C(=O)C1=Cc2ccc(-c3ccc4c(=O)n(CC(C)(C)O)ncc4c3)cc2N=C(N)C1    > 50 µM
CCCN(CCC)C(=O)C1=Cc2ccc(-c3ccc4c(=O)n(CC(=O)NC)ccc4c3)cc2N=C(N)C1    > 50 µM

Let us move to another entry and its EC50.
Task: Determine its reported EC50: CCCN(CCC)C(=O)C1=Cc2ccc(-c3ccc4c(=O)n(CC(=O)NC)c(=O)n(C)c4c3)cc2N=C(N)C1
Output: > 50 µM

---

Molecular target: TLR8 (Homo sapiens, UniProt Q9NR97)
Construct: host or cells: HEK293 (HEK-BLUE-hTLR8)
Assay: TLR8 cell based assay (HEK-BLUE-hTLR8, SEAP reporter linked to NF-κB activation)
Conditions: HEK-BLUE-hTLR8 cells, 24 h treatment, SEAP/QUANTI-Blue readout
Listing: EC50 of selected compounds

CCCN(CCC)C(=O)C1=Cc2ccc(-c3ccc4c(=O)n(CCC(N)=O)ncc4c3)cc2N=C(N)C1    < 100 nM
CCCN(CCC)C(=O)C1=Cc2ccc(-c3ccc4c(=O)n(CCP(C)(=O)OCC)ccc4c3)cc2N=C(N)C1 (stereo not shown)    < 100 nM
CCCN(CCC)C(=O)C1=Cc2ccc(-c3ccc4c(=O)n(Cc5cnccn5)ccc4c3)cc2N=C(N)C1    < 100 nM

Task: Determine its reported EC50: CCCN(CCC)C(=O)C1=Cc2ccc(-c3ccc4c(=O)n(CCc5cnccn5)ccc4c3)cc2N=C(N)C1
Output: 100 to 1000 nM

---

Listing: EC50 of selected compounds
Biological target: TLR8 (Homo sapiens)
Construct: host or cells: HEK293 (HEK-BLUE-hTLR8)
Experiment: TLR8 cell based assay (HEK-BLUE-hTLR8, SEAP reporter linked to NF-κB activation)
Details: HEK-BLUE-hTLR8 cells, 24 h treatment, SEAP/QUANTI-Blue readout

CCCN(CCC)C(=O)C1=Cc2ccc(-c3ccc4c(n3)CN(CCO)C4=O)cc2N=C(N)C1    100 to 1000 nM
CCCN(CCC)C(=O)C1=Cc2ccc(-c3ccc4c(=O)n(CCO)ncc4c3)cc2N=C(N)C1    < 100 nM
CCCN(CCC)C(=O)C1=Cc2ccc(-c3ccc4c(=O)n(CCO)c(C)cc4c3)cc2N=C(N)C1    < 100 nM
CCCN(CCC)C(=O)C1=Cc2ccc(-c3ccc4c(=O)n(CC(=O)N5CCCC5)ccc4c3)cc2N=C(N)C1    < 100 nM
CCCN(CCC)C(=O)C1=Cc2c(F)cc(-c3ccc4c(=O)n(CC(=O)NC)ncc4c3)cc2N=C(N)C1    < 100 nM
CCCN(CCC)C(=O)C1=Cc2ccc(-c3ccc4c(=O)n(CCN(C)C)ccc4c3)cc2N=C(N)C1    100 to 1000 nM
CCCN(CCC)C(=O)C1=Cc2c(F)cc(-c3ccc4c(=O)n(CC(=O)NC)ccc4c3)cc2N=C(N)C1    < 100 nM
CCCN(CCC)C(=O)C1=Cc2ccc(-c3ccc4c(=O)n(Cc5ncco5)ccc4c3)cc2N=C(N)C1    < 100 nM

Task: Check TLR8 (Homo sapiens) data and give EC50 for CCCN(CCC)C(=O)C1=Cc2ccc(-c3ccc4c(=O)n(CCS(C)(=O)=O)ccc4c3)cc2N=C(N)C1 .
Output: < 100 nM

Task: Check TLR8 (Homo sapiens) data and give EC50 for CCCN(CCC)C(=O)C1=Cc2ccc(-c3ccc4c(=O)n(CCNS(C)(=O)=O)ccc4c3)cc2N=C(N)C1 .
Output: < 100 nM

Task: Check TLR8 (Homo sapiens) data and give EC50 for CCCN(CCC)C(=O)C1=Cc2ccc(-c3ccc4c(=O)n(CC)c(C)cc4c3)cc2N=C(N)C1 .
Output: 100 to 1000 nM

Task: Check TLR8 (Homo sapiens) data and give EC50 for CCCN(CCC)C(=O)C1=Cc2ccc(-c3ccc4c(=O)n(CCP(=O)(OCC)OCC)ccc4c3)cc2N=C(N)C1 .
Output: 100 to 1000 nM

Task: Check TLR8 (Homo sapiens) data and give EC50 for CCCN(CCC)C(=O)C1=Cc2ccc(-c3ccc4c(=O)n(Cc5nccn5C(C)C)ccc4c3)cc2N=C(N)C1 .
Output: < 100 nM

Task: Check TLR8 (Homo sapiens) data and give EC50 for CCCN(CCC)C(=O)C1=Cc2c(F)cc(-c3ccc4c(=O)n(CCS(C)(=O)=O)c(=O)n(C)c4c3)cc2N=C(N)C1 .
Output: 100 to 1000 nM
